Form field: Cmax (one value per entry).
# Protocol details: Cmax in Sprague-Dawley rat at 10 mg/kg, po measured upto 24 hrs LC-MS/MS analysis
# Type: ADME, organism-based
# Particulars: in vivo
Numeric only. Scale: ng/mL

# Molecule, Reported
data = [
    ("Cc1nc(-c2ccc(C(C)(C)C)cc2)ncc1C(=O)N[C@@H](CCN)C(=O)N(C)[C@@H]1C(=O)N[C@@H](C)C(=O)N[C@H](C(=O)NCC#N)Cc2ccc(OCCN)c(c2)-c2cc1ccc2OCCN.Cl.Cl.Cl.Cl", 3.37),
]

Kindly consider the entry below.
If you can, please state the reported Cmax value of Cc1nc(-c2ccc(CSSC(C)(C)C)cc2)ncc1C(=O)N[C@@H](CCN)C(=O)N(C)[C@@H]1C(=O)N[C@@H](C)C(=O)N[C@H](C(=O)NCC#N)Cc2ccc(OCCN)c(c2)-c2cc1ccc2OCCN .
11.5

----------
# System: Klebsiella pneumoniae
# Protocol details: Antibacterial activity against Klebsiella pneumoniae 15-5 assessed as inhibition of bacterial growth measured after 18 to 20 hrs by broth microdilution method
# Format: functional
# Particulars: time 18-20 hrs
Observation type: MIC

Recorded MIC, per entry:
# Molecule, Observation type, Reported
measured = [
    ("Cc1nc(-c2ccc(C(C)(C)C)cc2)ncc1C(=O)N[C@@H](CCN)C(=O)N(C)[C@@H]1C(=O)N[C@@H](C)C(=O)N[C@H](C(=O)OCC=O)Cc2ccc(OCCN)c(c2)-c2cc1ccc2OCCN.Cl.Cl.Cl.Cl", "MIC", "≤ 0.03 µg/mL"),
    ("Cc1nc(-c2ccc(C(C)(C)C)cc2)ncc1C(=O)N[C@@H](CCN)C(=O)N(C)[C@H]1Cc2ccc(OCCN)c(c2)-c2cc(ccc2OCCN)[C@@H](C(=O)NCC#N)NC(=O)[C@H](C)NC1=O.Cl.Cl.Cl.Cl", "MIC", "> 64 µg/mL"),
    ("Cc1nc(-c2ccc(SSC(C)(C)C)cc2)ncc1C(=O)N[C@@H](CCN)C(=O)N(C)[C@@H]1C(=O)N[C@@H](C)C(=O)N[C@H](C(=O)NCC#N)Cc2ccc(OCCN)c(c2)-c2cc1ccc2OCCN.O=C(O)C(F)(F)F.O=C(O)C(F)(F)F.O=C(O)C(F)(F)F.O=C(O)C(F)(F)F", "MIC", "≤ 0.03 µg/mL"),
]

Notebook: pull reported MIC for Klebsiella pneumoniae, entry Cc1nc(-c2ccc(CSSC(C)(C)C)cc2)ncc1C(=O)N[C@@H](CCN)C(=O)N(C)[C@@H]1C(=O)N[C@@H](C)C(=O)N[C@H](C(=O)O)Cc2ccc(OCCN)c(c2)-c2cc1ccc2OCCN.O=C(O)C(F)(F)F.O=C(O)C(F)(F)F.O=C(O)C(F)(F)F.O=C(O)C(F)(F)F
≤ 0.03 µg/mL

Notebook: pull reported MIC for Klebsiella pneumoniae, entry Cc1nc(-c2ccc(C(C)(C)C)cc2)ncc1C(=O)N[C@@H](CCN)C(=O)N(C)[C@@H]1C(=O)N[C@@H](C)C(=O)N[C@H](C(=O)NCC=O)Cc2ccc(OCCN)c(c2)-c2cc1ccc2OCCN.Cl.Cl.Cl.Cl
≤ 0.03 µg/mL

Notebook: pull reported MIC for Klebsiella pneumoniae, entry CSSC(C)(C)c1ccc(-c2ncc(C(=O)N[C@@H](CCN)C(=O)N(C)[C@@H]3C(=O)N[C@@H](C)C(=O)N[C@H](C(=O)NCC#N)Cc4ccc(OCCN)c(c4)-c4cc3ccc4OCCN)c(C)n2)cc1.O=C(O)C(F)(F)F.O=C(O)C(F)(F)F.O=C(O)C(F)(F)F.O=C(O)C(F)(F)F
≤ 0.03 µg/mL

Notebook: pull reported MIC for Klebsiella pneumoniae, entry Cc1nc(-c2ccc(C(C)(C)C)cc2)ncc1C(=O)N[C@@H](CCN)C(=O)N(C)[C@@H]1C(=O)N[C@@H](C)C(=O)N[C@H](NC(=O)NCC#N)Cc2ccc(OCCN)c(c2)-c2cc1ccc2OCCN.O=C(O)C(F)(F)F.O=C(O)C(F)(F)F.O=C(O)C(F)(F)F.O=C(O)C(F)(F)F
> 64 µg/mL
